System: MDA-MB-435
protocol.text: Growth inhibition of human MDA-MB-435 cells after 48 hrs by sulforhodamine B assay
Assay type: functional, cell-based
settings: MDA-MB-435, 48 h
endpoint.name: TGI

Past entries and their recorded results:
- substance.smiles: "COc1cc(-c2nn(-c3cccc(NC(=O)c4cccc(C(F)(F)F)c4)c3)cc2-c2ccncc2)ccc1Cl"
  reported.measurement: "1.77 µM"
- substance.smiles: "O=C(Nc1cccc(-n2cc(-c3ccncc3)c(-c3ccc(Cl)c(O)c3)n2)c1)Nc1cc(C(F)(F)F)cc(C(F)(F)F)c1"
  reported.measurement: "2.59 µM"
- substance.smiles: "COc1cc(-c2nn(-c3cccc(NC(=O)c4ccc(Cl)c(C(F)(F)F)c4)c3)cc2-c2ccncc2)ccc1Cl"
  reported.measurement: "1.74 µM"

Quick one: TGI of `COc1cc(-c2nn(-c3cccc(NC(=O)c4ccccc4)c3)cc2-c2ccncc2)ccc1Cl` ?
0.551 µM

* * *

System: 786-0
protocol.text: Growth inhibition of human 786-0 cells after 48 hrs by sulforhodamine B assay
Format: functional
settings: 786-0, 48 h
endpoint.name: GI50

Past entries and their recorded results:
- substance.smiles: "COc1cc(-c2nn(-c3cccc(NC(=O)Nc4ccc(Cl)c(Cl)c4)c3)cc2-c2ccncc2)ccc1Cl"
  system: "786-0"
  GI50: "1.31 µM"
- substance.smiles: "COc1cc(-c2nn(-c3cccc(NC(=O)c4ccc(Cl)c(C(F)(F)F)c4)c3)cc2-c2ccncc2)ccc1Cl"
  system: "786-0"
  GI50: "11 µM"
- substance.smiles: "O=C(Nc1cccc(-n2cc(-c3ccncc3)c(-c3ccc(Cl)c(O)c3)n2)c1)Nc1cccc(C(F)(F)F)c1"
  system: "786-0"
  GI50: "4.69 µM"
- substance.smiles: "COc1cc(-c2nn(-c3cccc(NC(=O)c4ccc(N5CCOCC5)c(C(F)(F)F)c4)c3)cc2-c2ccncc2)ccc1Cl"
  system: "786-0"
  GI50: "0.819 µM"

Return GI50 measured with 786-0 given this compound: `COc1cc(-c2nn(-c3cccc(NC(=O)Nc4ccc(Cl)c(C(F)(F)F)c4)c3)cc2-c2ccncc2)ccc1Cl`
1.61 µM

* * *

Assign GI50 to each entry below.
Tested on: UACC-257
protocol.text: Growth inhibition of human UACC257 cells after 48 hrs by sulforhodamine B assay
Assay type: functional
settings: UACC-257, 48 h
Numbers only, in µM.

- substance.smiles: "O=C(Nc1cccc(-n2cc(-c3ccncc3)c(-c3ccc(Cl)c(O)c3)n2)c1)Nc1cc(C(F)(F)F)cc(C(F)(F)F)c1"
  GI50, µM: 0.965
- substance.smiles: "COc1cc(-c2nn(-c3cccc(NC(=O)Nc4ccc(Cl)c(Cl)c4)c3)cc2-c2ccncc2)ccc1Cl"
  GI50, µM: 1.04
- substance.smiles: "COc1cc(-c2nn(-c3cccc(NC(=O)c4ccc(Cl)c(C(F)(F)F)c4)c3)cc2-c2ccncc2)ccc1Cl"
  GI50, µM: 7.13
- substance.smiles: "COc1cc(-c2nn(-c3cccc(NC(=O)c4ccccc4)c3)cc2-c2ccncc2)ccc1Cl"
  GI50, µM: 0.859
- substance.smiles: "COc1cc(-c2nn(-c3cccc(NC(=O)c4cccc(C(F)(F)F)c4)c3)cc2-c2ccncc2)ccc1Cl"
  GI50, µM: 27.9

Please turn your attention to the following entry.
Quick one: GI50 of `COc1cc(-c2nn(-c3cccc(NC(=O)Nc4cccc(C(F)(F)F)c4)c3)cc2-c2ccncc2)ccc1Cl` ?
0.923
